EC50 listing for selected compounds.
- system: Cannabinoid receptor 1 (Mus musculus, UniProt P47746)
- Sequence (P47746 whole entry): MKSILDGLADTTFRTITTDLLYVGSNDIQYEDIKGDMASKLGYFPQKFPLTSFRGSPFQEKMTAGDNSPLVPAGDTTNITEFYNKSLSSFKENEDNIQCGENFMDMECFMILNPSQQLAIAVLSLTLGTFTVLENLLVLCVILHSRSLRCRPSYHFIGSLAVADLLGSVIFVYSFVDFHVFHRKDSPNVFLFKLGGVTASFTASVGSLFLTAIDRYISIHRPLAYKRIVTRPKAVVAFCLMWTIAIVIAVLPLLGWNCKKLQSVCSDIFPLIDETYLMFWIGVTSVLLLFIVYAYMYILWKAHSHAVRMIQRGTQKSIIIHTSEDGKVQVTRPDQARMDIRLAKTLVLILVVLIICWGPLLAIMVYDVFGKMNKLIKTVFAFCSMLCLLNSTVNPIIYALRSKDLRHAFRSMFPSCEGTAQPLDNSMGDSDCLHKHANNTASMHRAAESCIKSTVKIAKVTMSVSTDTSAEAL
- method summary: Agonist activity at CB1 receptor in ICR mouse vas deferens assessed as inhibition of electrically-stimulated contraction
Report only the number, with the unit µM understood.

Worked examples, 6 compounds total:
>  <compound>
CCCCCCN1C(C)=CC(C(=O)NN2CCCCC2)=NS1(=O)=O

>  <system>
Cannabinoid receptor 1 (Mus musculus, UniProt P47746)

>  <EC50 (µM)>
36.9

$$$$
>  <compound>
O=C(NN1CCCCC1)C1=NS(=O)(=O)N(Cc2ccccc2)C(c2ccc(Cl)cc2)=C1

>  <system>
Cannabinoid receptor 1 (Mus musculus, UniProt P47746)

>  <EC50 (µM)>
13.5

$$$$
>  <compound>
Cc1cc(C2=CC(C(=O)NC3CCCCC3)=NS(=O)(=O)N2Cc2ccc(Cl)cc2Cl)ccc1Cl

>  <system>
Cannabinoid receptor 1 (Mus musculus, UniProt P47746)

>  <EC50 (µM)>
36.9

$$$$
>  <compound>
O=C(NN1CCCCC1)C1=NS(=O)(=O)N(C2CCCCC2)C(c2ccc(Br)cc2)=C1

>  <system>
Cannabinoid receptor 1 (Mus musculus, UniProt P47746)

>  <EC50 (µM)>
38.4

$$$$
>  <compound>
CCCCCCN1C(c2ccc(Cl)cc2)=CC(C(=O)NN2CCCCC2)=NS1(=O)=O

>  <system>
Cannabinoid receptor 1 (Mus musculus, UniProt P47746)

>  <EC50 (µM)>
8.44

$$$$
>  <compound>
O=C(Nc1ccccc1)C1=NS(=O)(=O)N(Cc2ccccc2)C(c2ccc(Cl)cc2)=C1

>  <system>
Cannabinoid receptor 1 (Mus musculus, UniProt P47746)

>  <EC50 (µM)>
5.73

$$$$

Next item in the queue.
So, CC12CCC(C1)C(C)(C)C2NC(=O)C1=NS(=O)(=O)N(Cc2ccccc2)C(c2ccc(Cl)cc2)=C1 (configuration not stated) ? Its EC50 was 11.9

----------
- system: Cannabinoid receptor 1 (Mus musculus)
- method summary: Agonist activity at CB1 receptor in ICR mouse vas deferens assessed as inhibition of electrically-stimulated contraction
- Type: functional, tissue-based
Activity calls are given as the source filed them. No cut-off for these calls is given here.

>  <smiles input>
O=C(NN1CCOCC1)C1=NS(=O)(=O)N(Cc2ccccc2)C(c2ccc(Br)cc2)=C1

>  <Agonism>
inactive

$$$$
>  <smiles input>
O=C(NN1CCCCC1)C1=NS(=O)(=O)N(Cc2ccc(Cl)cc2Cl)C(c2ccc(Cl)cc2)=C1

>  <Agonism>
inactive

$$$$
>  <smiles input>
CC1=CC(C(=O)NN2CCCCC2)=NS(=O)(=O)N1c1ccc(Cl)cc1

>  <Agonism>
inactive

$$$$
